conditions: Patient ID 175, CYP2D6 functional group PM/PM
In this section, each of the compounds is paired with its reported plasma concentration.
Give the number; ng/mL is assumed, so skip it.

CC/C(=C(\c1ccccc1)c1ccc(OCCN(C)C)cc1)c1ccc(O)cc1 [4'-OH-Tam]	2.57
CC/C(=C(\c1ccc(O)cc1)c1ccc(OCCNC)cc1)c1ccccc1 [(Z)-Endoxifen 3-OH-NDM-Tam]	2.51
CC/C(=C(/c1ccc(OCCNC)cc1)c1ccc(O[C@@H]2O[C@H](C(=O)O)[C@@H](O)[C@H](O)[C@H]2O)cc1)c1ccccc1 [4-OH-NDM-Tam-Gluc]	0.301
CC/C(=C(\c1ccccc1)c1ccc(OCCN(C)C)cc1)c1ccccc1 [Tamoxifen]	124.88

From here, focus on the item given below.
stdin: Complete the entry with plasma concentration for CCC(=C(c1ccccc1)c1ccc(OCCNC)cc1)c1ccc(O)cc1 [4'-OH-NDM-Tam]
stdout: 6.180
